# protein stability index listing for each entry below
- Assay Method Text: protein stability index of a GFP-peptide fusion (yeast GPS) (PSI 1-4); higher = more stable; sorted into four equal gates, so the index is relative within each strain
- Condition Set: pdr5∆
# output: bare number, no unit

- Residue String: "EYALPKTYNKLHYCVSC [RPS26A]"
  protein stability index: 1.42
- Residue String: "LNNNNNNNNTTTTTTTT [SWI1]"
  protein stability index: 3.27
- Residue String: "EKVFTQGLNILEWLENP [FAS1]"
  protein stability index: 2.98
- Residue String: "FDSLRNFIVHSPMLKRI [GRR1]"
  protein stability index: 2.47
- Residue String: "EISKKDFVRKGGLQKGK [SIR3]"
  protein stability index: 1.91
- Residue String: "QIDHFKSMLSKPETLSI [SWI3]"
  protein stability index: 2.44

Recorded result, KDHDLKIPLPEVHDLIG [POP1] , protein stability index: 2.91

Short answer for DDVRRAAVIALGFVLLR [RPN2] : protein stability index was 2.09

Sure, the documented protein stability index for FNYQGDELVLNFENDNE [REC8] is 3.25

Per the record, IWNDVVYGEGTSRVTGI [YJL039C/NUP192] has protein stability index of 3.4

Record HILPEVPPVENFPVRQW [TAF14] , field protein stability index: 3.05
